Hello, the source for this data is patent US20150368338A1, in case you need it.

system_name: T1, IFN-αWA (human, UniProt P05015 24-189)
T1 construct: also called IFN-α16; alpha WA
test_protocol: ProteOn, one antigen concentration
value_type: Kd (nM)
Give the number; nM is assumed, so skip it.

# binder, units_symbol, Kd
rows = [
    ("IFWM3323 (antibody, V domains shown, VH IFWH591, VL IFWL1053; converted mAb; also called IFWB3058) VH: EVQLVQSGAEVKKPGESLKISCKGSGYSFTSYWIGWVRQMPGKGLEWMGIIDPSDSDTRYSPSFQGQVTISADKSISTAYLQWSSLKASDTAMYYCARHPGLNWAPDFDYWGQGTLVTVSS VL: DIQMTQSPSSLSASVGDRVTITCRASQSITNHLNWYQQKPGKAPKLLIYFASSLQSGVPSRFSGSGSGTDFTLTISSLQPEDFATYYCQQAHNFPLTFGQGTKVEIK", "nM", 0.121),
]

Query string: Recorded Kd of IFWM3345 (antibody, V domains shown, VH IFWH624, VL IFWL1000; converted mAb; also called IFWB3080) VH: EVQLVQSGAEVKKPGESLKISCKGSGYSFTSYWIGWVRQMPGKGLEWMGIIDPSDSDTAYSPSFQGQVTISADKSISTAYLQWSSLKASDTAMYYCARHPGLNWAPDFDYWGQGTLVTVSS VL: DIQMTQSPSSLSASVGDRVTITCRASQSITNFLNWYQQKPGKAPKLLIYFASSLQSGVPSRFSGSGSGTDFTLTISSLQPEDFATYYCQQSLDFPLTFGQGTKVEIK , please.
Result string: 0.111
